# Test system: Glutamate receptor ionotropic NMDA 1 non-selective, GRIN1 (r)
Structures can show the parent of a compound that is named as a salt.
Please go through the items and note down their Specific binding.
One number for each entry, in %.

Exam item: Report measured Specific binding; entry is `O=C1CN(N=Cc2ccc([N+](=O)[O-])o2)C(=O)N1`
Marked response: -2.8

Exam item: Report measured Specific binding; entry is `Cn1cnc([N+](=O)[O-])c1Sc1ncnc2nc[nH]c12`
Marked response: 4.2

Exam item: Report measured Specific binding; entry is O=C(O)COCCN1CCN(C(c2ccccc2)c2ccc(Cl)cc2)CC1 (stereo not shown) [Cetirizine dihydrochloride]
Marked response: 1.4

Exam item: Report measured Specific binding; entry is CN(C)C(=N)N=C(N)N [Metformin, N,N-Dimethyltriimidodicarbonic diamide]
Marked response: -9.9

Exam item: Report measured Specific binding; entry is NNc1nncc2ccccc12 [Hydralazine hydrochloride]
Marked response: -0.5

Exam item: Report measured Specific binding; entry is NS(=O)(=O)c1cc(C(=O)O)c(NCc2ccco2)cc1Cl [Furosemide]
Marked response: 5.8

***
Exam item: Report measured Specific binding; entry is O=S(=O)(O)NC1CCCCC1 [Cyclamate, Sodium cyclohexylsulfamate]
Marked response: -4.4

====

# experimental-system: Estrogen receptor, ER1 (h) (Homo sapiens, UniProt P03372)
# Construct: purchased Eurofins Cerep (SafetyScreen44-based IPP panel)
# Sequence (P03372 whole entry): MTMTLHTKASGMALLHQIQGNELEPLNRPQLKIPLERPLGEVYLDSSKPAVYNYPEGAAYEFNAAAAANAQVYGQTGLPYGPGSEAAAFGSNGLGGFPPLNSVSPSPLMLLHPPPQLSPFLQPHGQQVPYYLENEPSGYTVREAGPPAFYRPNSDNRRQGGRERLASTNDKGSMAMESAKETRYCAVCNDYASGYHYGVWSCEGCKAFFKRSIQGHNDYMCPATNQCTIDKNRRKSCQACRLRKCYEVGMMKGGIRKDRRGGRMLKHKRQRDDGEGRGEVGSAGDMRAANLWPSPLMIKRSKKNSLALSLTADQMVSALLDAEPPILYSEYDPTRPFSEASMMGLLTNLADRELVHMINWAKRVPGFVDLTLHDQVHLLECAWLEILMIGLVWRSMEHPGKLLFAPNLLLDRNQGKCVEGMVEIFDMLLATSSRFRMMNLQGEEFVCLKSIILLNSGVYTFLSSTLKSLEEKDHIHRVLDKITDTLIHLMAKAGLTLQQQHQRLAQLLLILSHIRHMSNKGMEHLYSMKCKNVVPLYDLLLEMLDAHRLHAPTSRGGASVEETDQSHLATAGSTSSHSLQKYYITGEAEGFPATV
# method-summary: IPP ER1 coactivator recruitment (antagonist)
# Type: biochemical
# applied-conditions: 100 uM, estriol, * denotes assay interference (2-Amino-6-chloro-4-nitrophenol, HC Red 3)
Peptide text beside a SMILES is read from it.
quantity-kind: IPP screening %, Coactivator recruitment (%)
Give bare numbers, in %.

Exam item: Report measured IPP screening %, Coactivator recruitment; entry is CCOc1cc(CCC(C)=O)ccc1O [Ethylzingerone, 4-(3-Ethoxy-4-hydroxyphenyl)butan-2-one]
Marked response: -14.0

Exam item: Report measured IPP screening %, Coactivator recruitment; entry is COC(=O)[C@H](Cc1ccccc1)NC(=O)[C@@H](N)CC(=O)O [Aspartame] (H-Asp-Phe-OMe)
Marked response: -1.0

Exam item: Report measured IPP screening %, Coactivator recruitment; entry is Cc1c(O)cccc1O [2-methyl-1,3-benzenediol, 2-Methylbenzene-1,3-diol]
Marked response: -6.0

Exam item: Report measured IPP screening %, Coactivator recruitment; entry is CC(C)[C@H](N)C(=O)O [L-valine, L-Valine]
Marked response: -2.0

Exam item: Report measured IPP screening %, Coactivator recruitment; entry is CCCCCCC(O)CO (stereo not drawn) [1,2-Octanediol, Octane-1,2-diol]
Marked response: 0.0

For each of the items listed, what is its IPP screening %, Coactivator recruitment?
1. O=C(O)c1ccc2c(c1)C(=O)OC2=O [Trimellitic anhydride]
2. CCN(CC)C(=O)c1cccc(C)c1 [DEET, N,N-Diethyl-3-methylbenzamide]
3. CC1(C)O[C@@H]2[C@@H](CO[C@@]3(COS(N)(=O)=O)OC(C)(C)O[C@@H]23)O1 [Topiramate]

Marked response:
-1.0
0.0
-1.0

====

# Test system: Sodium channel protein type 5 subunit alpha (site 2), SCN5A (r)
# Assay type: binding, rat
Counter-ions that a name gives are not always drawn.
Please go through the items and note down their Specific binding.
Give bare numbers, in %.

Known Specific binding results, listed for orientation:
Exam item: Give Sodium channel protein type 5 subunit alpha (site 2), SCN5A (r) Specific binding for the following molecule: CC(=O)Nc1ccc(O)cc1 [Paracetamol, N-(4-Hydroxyphenyl)acetamide]
Marked response: 34.9

Exam item: Give Sodium channel protein type 5 subunit alpha (site 2), SCN5A (r) Specific binding for the following molecule: `C[C@H]1O[C@@H](O[C@H]2[C@@H](O)C[C@H](O[C@H]3[C@@H](O)C[C@H](O[C@H]4CC[C@@]5(C)[C@H](CC[C@@H]6[C@@H]5C[C@@H](O)[C@]5(C)[C@@H](C7=CC(=O)OC7)CC[C@]65O)C4)O[C@@H]3C)O[C@@H]2C)C[C@H](O)[C@@H]1O`
Marked response: 19.6

Exam item: Give Sodium channel protein type 5 subunit alpha (site 2), SCN5A (r) Specific binding for the following molecule: O=S(=O)(O)NC1CCCCC1 [Cyclamate, Sodium cyclohexylsulfamate]
Marked response: 19.1

Exam item: Give Sodium channel protein type 5 subunit alpha (site 2), SCN5A (r) Specific binding for the following molecule: CC(C)Cc1ccc(C(C)C(=O)O)cc1 (centres unmarked)
Marked response: 32.1

Exam item: Give Sodium channel protein type 5 subunit alpha (site 2), SCN5A (r) Specific binding for the following molecule: `C[C@@H]1C[C@H]2[C@@H]3CCC4=CC(=O)C=C[C@]4(C)[C@@]3(F)[C@@H](O)C[C@]2(C)[C@@]1(O)C(=O)CO`
Marked response: 11.2

Exam item: Give Sodium channel protein type 5 subunit alpha (site 2), SCN5A (r) Specific binding for the following molecule: CCN(CC)CCNC(=O)c1cc(Cl)c(N)cc1OC [Metoclopramide]
Marked response: 40.1

For each of the items listed, what is its Specific binding?
1. O=P1(N(CCCl)CCCl)NCCCO1 (centres unmarked) [Cyclophosphamide]
2. CCOP(=S)(OCC)Oc1nc(Cl)c(Cl)cc1Cl
3. O=C1CN(N=Cc2ccc([N+](=O)[O-])o2)C(=O)N1
4. COc1ccc(CCN(C)CCCC(C#N)(c2ccc(OC)c(OC)c2)C(C)C)cc1OC (centres unmarked) [Verapamil Hydrochloride]

Marked response:
1: 12.4; 2: 13.4; 3: 4.4; 4: 74.6

For each of the items listed, what is its Specific binding?
1. NNc1nncc2ccccc12 [Hydralazine hydrochloride]
2. COc1ccc(Cl)cc1C(=O)NCCc1ccc(S(=O)(=O)NC(=O)NC2CCCCC2)cc1 [Glybenclamide]
3. Cn1cnc([N+](=O)[O-])c1Sc1ncnc2nc[nH]c12
4. CCOC(=O)c1ccc(N)cc1 [Benzocaine, Ethyl 4-aminobenzoate]

Marked response:
[25.6, 22.5, -8.7, -0.8]
